- tested.target: Rat brain protein farnesyltransferase (Rattus norvegicus, UniProt Q02293+Q04631)
- Construct: The enzyme is purified according to Reiss, Y., et al., Cell, 62: 81-88 (1990), utilizing steps one through three; from tissue; host or cells: rat brain
- measurement.notes: In vitro inhibition of protein farnesyltransferase, Amersham scintillation proximity assay with biotin-K Ras B fragment
- Format: biochemical
- condition: Inhibition of farnesyltransferase; compound at 1 × 10^−6 M (Table 2)
reported.metric: % inhibition at 1 × 10^−6 M (%)

{"compound": "COc1cccc(-c2cc(COc3cccnc3)ccc2C(=O)N[C@@H](CCSC)C(=O)O)c1 [Example 208]", "reported.value": 98}
{"compound": "Cc1ccccc1-c1cc(COc2cccnc2)ccc1C(=O)N[C@@H](CCC(N)=O)C(=O)O [Example 313]", "reported.value": 94}
{"compound": "CSCC[C@H](NC(=O)c1ccc(CSc2cccnc2)cc1-c1ccccc1C)C(=O)O [Example 324]", "reported.value": 98}
{"compound": "CSCC[C@H](NC(=O)c1ccc(COc2cccnc2)cc1-c1ccc(C)cc1)C(=O)O [Example 206]", "reported.value": 67}
